Assay: NCI Yeast Anticancer Drug Screen. Data for the mec2-1 strain (AID 157)
Conditions: S. cerevisiae mec2-1 strain, at 5.0 µM (retest, dose inferred, filed as 0.5), hits give high values
Compounds without any hit were thinned out: in the full panel of roughly 79,000, 15% have a hit.
measurement.name: growth inhibition (%)

{"compound": "COC(=O)N/N=C(/CC1(O)C(=O)Nc2ccccc21)c1ccc(Cl)cc1Cl (centres undefined)", "quantitative.result": 10}
{"compound": "CC(CN(C)C)C(/C=C/c1ccc(F)cc1)=N\\Nc1ccccc1 (centres undefined)", "quantitative.result": -11}
{"compound": "Cc1cc2ccc(N)nc2[nH]c1=O", "quantitative.result": -2}
{"compound": "Cc1cccc(C)c1O", "quantitative.result": -1}
{"compound": "CC(CN(C)C)C(/C=C/c1ccc(Cl)cc1)=N\\NC(=O)c1ccccc1 (centres undefined)", "quantitative.result": 2}
{"compound": "COC(=O)c1cc(-c2ccc(C)cc2)c2c(=O)n(-c3ccccc3)[nH]c2n1", "quantitative.result": 5}
{"compound": "CCCCCCCCCCN(CCCCCCCCCC)C1CC(OC2CC(O)(C(O)CO)Cc3c(O)c4c(c(O)c32)C(=O)c2c(OC)cccc2C4=O)OC(C)C1O (centres undefined)", "quantitative.result": 8}
{"compound": "CCCC(=O)Oc1ccc(-c2ccc(Br)cc2)cc1", "quantitative.result": 11}
{"compound": "CCCCCCCCCc1cc(=O)[nH]c(=S)[nH]1", "quantitative.result": 6}
{"compound": "CC(CN(C)C)C(=O)/C=C/c1c(Cl)cccc1Cl (centres undefined)", "quantitative.result": 8}
{"compound": "CCOC(=O)c1c(C)n(C)c2c1nnc1ccccc12", "quantitative.result": 15}
{"compound": "O=C(NC1CCN(Cc2ccccc2)CC1)c1ccccc1I", "quantitative.result": 38}
{"compound": "O=P(Nc1ccccc1)(OCc1ccccc1)OCc1ccccc1", "quantitative.result": 12}
{"compound": "O=C(c1ccccc1)C1(C(=O)c2ccccc2)/C(=N\\O)C2CCC1C2 (centres undefined)", "quantitative.result": 1}
{"compound": "c1ccc(C(c2ccccc2)c2ccc3ccccc3n2)cc1", "quantitative.result": -2}
{"compound": "O=[N+]([O-])c1ccc2c(c1)/C(=C/c1ccc(O)cc1)c1ccccc1-2", "quantitative.result": 1}
{"compound": "O=C1NC(=O)c2cccc3cccc1c23", "quantitative.result": 7}
{"compound": "CC(C)Cn1cnc2c(SCc3ccccc3[N+](=O)[O-])nc(N)nc21", "quantitative.result": -4}
{"compound": "O=CC1(c2ccc(Cl)cc2)NC(=O)NC1=O (centres undefined)", "quantitative.result": -1}
{"compound": "CCc1n[nH]c(CC)c1CCCCCCOc1ccc(OC)cc1Cl", "quantitative.result": -15}
{"compound": "CC[N](CC)[Ge]([CH2]C)[CH2]C.CC[N](CC)[Ge]([CH2]C)[CH2]C", "quantitative.result": 21}
{"compound": "C=CCOc1ccccc1C(=O)OC", "quantitative.result": 6}
{"compound": "CCCC(/C=N/N=C(N)N)=N\\N=C(N)N", "quantitative.result": -11}
{"compound": "COc1ccc(Cc2coc3ccccc3c2=O)cc1OC", "quantitative.result": 2}

Values from PubChem BioAssay (NCI)
